Test system: DU-145
Assay: Cytotoxicity against human DU145 cells assessed as reduction in cell viability after 24 hrs by MTT assay
Type: cell-based
Details: DU-145, 24 h
Quantity: IC50

Sample answers from the record:
Task: Which IC50 is reported for this molecule? CCCCCCCCCCCCCC[C@@H](OP(=O)(O)O)[C@@H](O)CCCO
Result: > 10 µM

Task: Which IC50 is reported for this molecule? O=C(O)CNC(=O)CCCCCC[C@H](O)CCCO
Result: > 10 µM

Next:
Task: Which IC50 is reported for this molecule? CCCCCCCCCCCCCC[C@@H](OP(=O)(O)O)[C@@H](O)CC[C@@H](O)[C@@H](O)CC[C@@H](O)CCCCCCC(=O)NCC(=O)O
Result: > 10 µM
